# System: gastric mucosa
# Details: both, albino, mouse, in vivo, po, 10 mg/kg, 3 days
Measurement Label: Average of Ulcer Number
Provide a numeric answer; units are not to be included.

Look over these answered cases.
Q. What does the record list as Average of Ulcer Number for C#CCOC(=O)C(C)c1ccc(CC(C)C)cc1 (stereo not shown) [Compound 3] ?
A. 0.33

Q. What does the record list as Average of Ulcer Number for COc1ccccc1-n1cc(COC(=O)C(C)c2ccc(CC(C)C)cc2)nn1 (stereo not shown) [Compound 5e] ?
A. 0

Turning to the following compound.
Q. What does the record list as Average of Ulcer Number for CC(C)Cc1ccc(C(C)C(=O)O)cc1 (stereo not shown) [Ibu, Ibuprofen, reference compound] ?
A. 0.33

Where do these numbers come from? They come from paper PMC9965125.
